- experimental details: in vivo
- Parameters: species or system mice
- recorded conditions: male, NOD.Cg-Rag1tm1Mom Il2rgtm1Wjl/SzJ (NRG), mouse, iv, total radioactivity, Biodistribution: Testes
Where a SMILES comes first, the peptide text is derived from it. Bridges are numbered along the chain shown (N, C = ends). [ ]: non-standard residue; d: D form. The star is where a group is joined. X4 = O=C(O)CN1CCN(CC(=O)O)CCN(CC(=O)N[C@@H](CS(=O)(=O)O)C(=O)NCCCC[C@H](NC(=O)CNC(=O)CCCc2ccc(Cl)cc2)C(=O)*)CCN(CC(=O)O)CC1; X3 = O=C(O)CN1CCN(CC(=O)O)CCN(CC(=O)N[C@@H](CS(=O)(=O)O)C(=O)N[C@@H](CCCCNC(=O)CCCc2ccc(Br)cc2)C(=O)*)CCN(CC(=O)O)CC1; X5 = O=C(O)CN1CCN(CC(=O)O)CCN(CC(=O)N[C@@H](CS(=O)(=O)O)C(=O)N[C@@H](CCCCNC(=O)CCCc2ccc(Cl)cc2)C(=O)*)CCN(CC(=O)O)CC1; X1 = O=C(O)CN1CCN(CC(=O)O)CCN(CC(=O)N[C@@H](CS(=O)(=O)O)C(=O)N[C@@H](CCCCNC(=O)CCCc2ccc(I)cc2)C(=O)*)CCN(CC(=O)O)CC1; 2Nal = N[C@@H](Cc1ccc2ccccc2c1)C(=O)O; Lys(iPr) = CC(C)NCCCC[C@H](N)C(=O)O
Reported tissue uptake at 3 h by item:
// return numeric value only (unit: %ID/g, not printed)

- molecule: "CC(C)NCCCC[C@H](NC(=O)[C@H]1CCC(=O)N[C@@H](CCCCNC(=O)[C@H](CCCCNC(=O)[C@H](CS(=O)(=O)O)NC(=O)CN2CCN(CC(=O)O)CCN(CC(=O)O)CCN(CC(=O)O)CC2)NC(=O)CNC(=O)CCCc2ccc(Cl)cc2)C(=O)N[C@@H](Cc2ccc(O)cc2)C(=O)N[C@@H](CCCCNC(C)C)C(=O)N[C@H](CCCNC(=N)N)C(=O)N[C@@H](Cc2ccc3ccccc3c2)C(=O)N[C@H](C)C(=O)N1)C(N)=O [[68Ga]Ga-BL34T1, metal not drawn] (K(X4)Y[Lys(iPr)][dR][2Nal][dA][dE][Lys(iPr)]-NH2; lactam N-7)"
  uom: "%ID/g"
  assay result: 1.71
- molecule: "CC(C)NCCCC[C@H](NC(=O)[C@H]1CCC(=O)N[C@@H](CCCCNC(=O)[C@H](CCCCNC(=O)CCCc2ccc(I)cc2)NC(=O)[C@H](CS(=O)(=O)O)NC(=O)CN2CCN(CC(=O)O)CCN(CC(=O)O)CCN(CC(=O)O)CC2)C(=O)N[C@@H](Cc2ccc(O)cc2)C(=O)N[C@@H](CCCCNC(C)C)C(=O)N[C@H](CCCNC(=N)N)C(=O)N[C@@H](Cc2ccc3ccccc3c2)C(=O)N[C@H](C)C(=O)N1)C(N)=O [[^68Ga]Ga-BL34L11, metal not drawn] (K(X1)Y[Lys(iPr)][dR][2Nal][dA][dE][Lys(iPr)]-NH2; lactam N-7)"
  uom: "%ID/g"
  assay result: 2.59
- molecule: "CC(C)NCCCC[C@H](NC(=O)[C@H]1CCC(=O)N[C@@H](CCCCNC(=O)[C@H](CCCCNC(=O)CCCc2ccc(Br)cc2)NC(=O)[C@H](CS(=O)(=O)O)NC(=O)CN2CCN(CC(=O)O)CCN(CC(=O)O)CCN(CC(=O)O)CC2)C(=O)N[C@@H](Cc2ccc(O)cc2)C(=O)N[C@@H](CCCCNC(C)C)C(=O)N[C@H](CCCNC(=N)N)C(=O)N[C@@H](Cc2ccc3ccccc3c2)C(=O)N[C@H](C)C(=O)N1)C(N)=O [[^177Lu]Lu-BL34L20, metal not drawn] (K(X3)Y[Lys(iPr)][dR][2Nal][dA][dE][Lys(iPr)]-NH2; lactam N-7)"
  uom: "%ID/g"
  assay result: 2.81

Turning now to a further record.
Report measured tissue uptake at 3 h; entry is CC(C)NCCCC[C@H](NC(=O)[C@H]1CCC(=O)N[C@@H](CCCCNC(=O)[C@H](CCCCNC(=O)CCCc2ccc(Cl)cc2)NC(=O)[C@H](CS(=O)(=O)O)NC(=O)CN2CCN(CC(=O)O)CCN(CC(=O)O)CCN(CC(=O)O)CC2)C(=O)N[C@@H](Cc2ccc(O)cc2)C(=O)N[C@@H](CCCCNC(C)C)C(=O)N[C@H](CCCNC(=N)N)C(=O)N[C@@H](Cc2ccc3ccccc3c2)C(=O)N[C@H](C)C(=O)N1)C(N)=O [[^68Ga]Ga-BL34L16, metal not drawn] (K(X5)Y[Lys(iPr)][dR][2Nal][dA][dE][Lys(iPr)]-NH2; lactam N-7) 0.68

----------
- experimental details: in vivo
- Parameters: species or system mice
- recorded conditions: male, NOD.Cg-Rag1tm1Mom Il2rgtm1Wjl/SzJ (NRG), mouse, iv, total radioactivity, Biodistribution: Adrenals
Where a SMILES comes first, the peptide text is derived from it. Bridges are numbered along the chain shown (N, C = ends). [ ]: non-standard residue; d: D form. The star is where a group is joined. X4 = O=C(O)CN1CCN(CC(=O)O)CCN(CC(=O)N[C@@H](CS(=O)(=O)O)C(=O)NCCCC[C@H](NC(=O)CNC(=O)CCCc2ccc(Cl)cc2)C(=O)*)CCN(CC(=O)O)CC1; 2Nal = N[C@@H](Cc1ccc2ccccc2c1)C(=O)O; Lys(iPr) = CC(C)NCCCC[C@H](N)C(=O)O
value type: tissue uptake at 1 h
Include the unit right after the number.

Report measured tissue uptake at 1 h; entry is CC(C)NCCCC[C@H](NC(=O)[C@H]1CCC(=O)N[C@@H](CCCCNC(=O)[C@H](CCCCNC(=O)[C@H](CS(=O)(=O)O)NC(=O)CN2CCN(CC(=O)O)CCN(CC(=O)O)CCN(CC(=O)O)CC2)NC(=O)CNC(=O)CCCc2ccc(Cl)cc2)C(=O)N[C@@H](Cc2ccc(O)cc2)C(=O)N[C@@H](CCCCNC(C)C)C(=O)N[C@H](CCCNC(=N)N)C(=O)N[C@@H](Cc2ccc3ccccc3c2)C(=O)N[C@H](C)C(=O)N1)C(N)=O [[68Ga]Ga-BL34T1, metal not drawn] (K(X4)Y[Lys(iPr)][dR][2Nal][dA][dE][Lys(iPr)]-NH2; lactam N-7) 2.62 %ID/g

----------
- experimental details: in vivo
- Parameters: species or system mice
- recorded conditions: male, NOD.Cg-Rag1tm1Mom Il2rgtm1Wjl/SzJ (NRG), mouse, iv, total radioactivity, Biodistribution: Muscle
Where a SMILES comes first, the peptide text is derived from it. Bridges are numbered along the chain shown (N, C = ends). [ ]: non-standard residue; d: D form. The star is where a group is joined. X4 = O=C(O)CN1CCN(CC(=O)O)CCN(CC(=O)N[C@@H](CS(=O)(=O)O)C(=O)NCCCC[C@H](NC(=O)CNC(=O)CCCc2ccc(Cl)cc2)C(=O)*)CCN(CC(=O)O)CC1; X3 = O=C(O)CN1CCN(CC(=O)O)CCN(CC(=O)N[C@@H](CS(=O)(=O)O)C(=O)N[C@@H](CCCCNC(=O)CCCc2ccc(Br)cc2)C(=O)*)CCN(CC(=O)O)CC1; X5 = O=C(O)CN1CCN(CC(=O)O)CCN(CC(=O)N[C@@H](CS(=O)(=O)O)C(=O)N[C@@H](CCCCNC(=O)CCCc2ccc(Cl)cc2)C(=O)*)CCN(CC(=O)O)CC1; 2Nal = N[C@@H](Cc1ccc2ccccc2c1)C(=O)O; Lys(iPr) = CC(C)NCCCC[C@H](N)C(=O)O
value type: tissue uptake at 3 h (%ID/g)
// return numeric value only (unit: %ID/g, not printed)

Would you please look over these solved cases?
- molecule: "CC(C)NCCCC[C@H](NC(=O)[C@H]1CCC(=O)N[C@@H](CCCCNC(=O)[C@H](CCCCNC(=O)CCCc2ccc(Cl)cc2)NC(=O)[C@H](CS(=O)(=O)O)NC(=O)CN2CCN(CC(=O)O)CCN(CC(=O)O)CCN(CC(=O)O)CC2)C(=O)N[C@@H](Cc2ccc(O)cc2)C(=O)N[C@@H](CCCCNC(C)C)C(=O)N[C@H](CCCNC(=N)N)C(=O)N[C@@H](Cc2ccc3ccccc3c2)C(=O)N[C@H](C)C(=O)N1)C(N)=O [[^68Ga]Ga-BL34L16, metal not drawn] (K(X5)Y[Lys(iPr)][dR][2Nal][dA][dE][Lys(iPr)]-NH2; lactam N-7)"
  uom: "%ID/g"
  tissue uptake at 3 h: 0.32
- molecule: "CC(C)NCCCC[C@H](NC(=O)[C@H]1CCC(=O)N[C@@H](CCCCNC(=O)[C@H](CCCCNC(=O)CCCc2ccc(Br)cc2)NC(=O)[C@H](CS(=O)(=O)O)NC(=O)CN2CCN(CC(=O)O)CCN(CC(=O)O)CCN(CC(=O)O)CC2)C(=O)N[C@@H](Cc2ccc(O)cc2)C(=O)N[C@@H](CCCCNC(C)C)C(=O)N[C@H](CCCNC(=N)N)C(=O)N[C@@H](Cc2ccc3ccccc3c2)C(=O)N[C@H](C)C(=O)N1)C(N)=O [[^177Lu]Lu-BL34L20, metal not drawn] (K(X3)Y[Lys(iPr)][dR][2Nal][dA][dE][Lys(iPr)]-NH2; lactam N-7)"
  uom: "%ID/g"
  tissue uptake at 3 h: 0.93

Turning now to a further record.
Report measured tissue uptake at 3 h; entry is CC(C)NCCCC[C@H](NC(=O)[C@H]1CCC(=O)N[C@@H](CCCCNC(=O)[C@H](CCCCNC(=O)[C@H](CS(=O)(=O)O)NC(=O)CN2CCN(CC(=O)O)CCN(CC(=O)O)CCN(CC(=O)O)CC2)NC(=O)CNC(=O)CCCc2ccc(Cl)cc2)C(=O)N[C@@H](Cc2ccc(O)cc2)C(=O)N[C@@H](CCCCNC(C)C)C(=O)N[C@H](CCCNC(=N)N)C(=O)N[C@@H](Cc2ccc3ccccc3c2)C(=O)N[C@H](C)C(=O)N1)C(N)=O [[68Ga]Ga-BL34T1, metal not drawn] (K(X4)Y[Lys(iPr)][dR][2Nal][dA][dE][Lys(iPr)]-NH2; lactam N-7) 0.73
